System: PC12 cells
Assay: KCN-induced necrosis of PC12 cells, LDH release
Format: cell-based, rat
Conditions: Rattus norvegicus, PC-12, 5 h, 10 nM; KCN, PC12, LDH release (Table 5); read-out: % protection At 10 nM
compounds and their reported inhibition at 0.01 µM
measured quantity: inhibition at 0.01 µM (%)

[[record]]
compound = "CCOC(=O)C1=C(C)N(CC(=O)NCc2ccc(C)cc2)c2ncnn2C1c1ccccc1 (centres unmarked) [D529-0049]"
measured_quantity = "inhibition at 0.01 µM"
observed = 33

[[record]]
compound = "CC(C)c1cc(C2CCCN2C(=O)C2CC2)no1 (centres unmarked) [Z632-2266]"
measured_quantity = "inhibition at 0.01 µM"
observed = 46

[[record]]
compound = "O=C1C(NS(=O)(=O)c2ccc(Cl)s2)CCN1c1ccccc1 (centres unmarked) [P316-0028]"
measured_quantity = "inhibition at 0.01 µM"
observed = 43

[[record]]
compound = "CCC(=O)N1CCN=C1N1CCN(C)CC1 [M059-0891]"
measured_quantity = "inhibition at 0.01 µM"
observed = 55

[[record]]
compound = "O=C(NCCNC(=O)c1nc(Cn2cc(Cl)cn2)no1)c1cccc(F)c1 [8019-5381]"
measured_quantity = "inhibition at 0.01 µM"
observed = 32

